These measurements were taken from PubChem BioAssay AID602123.

Reported inhibition is given for each of the following molecules.
Molecular target: Lon protease (Escherichia coli (strain K12))
Assay: inhibitors of E. coli Lon protease, primary screen, biochemical, fluorescence polarization (AID 602123);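 further: 0% = enzyme with probe and DMSO and 100% = no enzyme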
Details: purified E. coli Lon protease, at 7.94 µM, active compounds read high
Among all 360,000 compounds or so, about 1,500 (0.42%) were called active. The full list was thinned out, with actives kept by preference.
Readout label: inhibition (%)

Molecule: Cc1ccc(CCNC(=O)c2ccc3nc4ccccc4c(=O)n3c2)cc1
Readout label: inhibition
Unit of measurement: %
Reported result: 4.65

Molecule: O=C(COC(=O)CCc1c[nH]c(=O)[nH]1)Nc1ccccc1Cl
Readout label: inhibition
Unit of measurement: %
Reported result: 25.7

Molecule: Cc1cccc(NC(=O)COC(=O)CCc2ccccc2)c1C
Readout label: inhibition
Unit of measurement: %
Reported result: -6.48

Molecule: COc1ccc(CCNC(=O)Cn2c(=O)n(CC3CCCO3)c(=O)c3ccccc32)cc1OC (stereo not given)
Readout label: inhibition
Unit of measurement: %
Reported result: -3.69

Molecule: CCOCCc1nn2c(=O)cc(CSCC(=O)Nc3cccc(C)c3C)nc2s1
Readout label: inhibition
Unit of measurement: %
Reported result: 4.06

Molecule: CCN1CC=C2C(C#N)=C(N)C(C#N)(C#N)[C@H](c3ccoc3)[C@H]2C1
Readout label: inhibition
Unit of measurement: %
Reported result: 120

Molecule: COc1ccc(NC(=S)NCc2cccs2)c(OC)c1
Readout label: inhibition
Unit of measurement: %
Reported result: -8.04

Molecule: CC(=O)c1cccc(OCC(=O)OCC(=O)Nc2cc(S(=O)(=O)N3CCCCC3)ccc2C)c1
Readout label: inhibition
Unit of measurement: %
Reported result: 7.88

Molecule: O=C(COC(=O)CNC(=O)C1CCCCC1)Nc1cccc(F)c1
Readout label: inhibition
Unit of measurement: %
Reported result: -17.9

Molecule: Cc1ccc2nc3c(cc(C(=O)NCCc4ccccc4)c(=N)n3CC3CCCO3)c(=O)n2c1 (stereo not given)
Readout label: inhibition
Unit of measurement: %
Reported result: 18.8
